- assay.target: T1, human glypican-3 (GPC3) (human, UniProt P51654 25-554)
- T1 construct: Endogenous on JHH-7, JHH-5, HepG2 and NCI-H446 tumour cells, or transiently expressed on CHO-S cells from a pTT5 plasmid; also called hGPC3; huGPC3
- measurement.description: flow cytometry on JHH-7 cells (GPC3-high);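 note: antibody binding at 4 °C for 24 h, detected with anti-human AF647 secondary, geometric mean fluorescence of live cells versus antibody concentration, fitted as specific binding with Hill slope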
measured.endpoint: Kd
Please make sure the unit comes right after the number.

Param item = H18L6_LC_G34Q mAb, v40208 (antibody, human IgG1, kappa, V domains shown, Full-size IgG1/kappa) VH: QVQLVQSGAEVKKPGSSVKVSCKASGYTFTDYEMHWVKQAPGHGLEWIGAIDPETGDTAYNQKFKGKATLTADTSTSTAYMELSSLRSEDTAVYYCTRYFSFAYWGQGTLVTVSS VL: EIVLTQSPATLSLSPGERATISCRSSQSLRHSNQNTYLQWYQQKPGQAPRLLIYKVSNRFSGVPARFSGSGSGTDFTLTISSLEPEDFAVYFCYQSKHVPYTFGGGTKVEIKR ; retrieve measured Kd.
440 pM

Param item = H18L6_LC_G34A mAb, v40212 (antibody, human IgG1, kappa, V domains shown, M3-H18L6 chains with the stated light chain point mutation, IgG1/kappa) VH: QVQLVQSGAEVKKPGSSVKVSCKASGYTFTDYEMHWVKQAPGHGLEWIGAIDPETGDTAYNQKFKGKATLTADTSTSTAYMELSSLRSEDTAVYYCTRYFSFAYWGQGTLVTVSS VL: EIVLTQSPATLSLSPGERATISCRSSQSLRHSNANTYLQWYQQKPGQAPRLLIYKVSNRFSGVPARFSGSGSGTDFTLTISSLEPEDFAVYFCYQSKHVPYTFGGGTKVEIKR ; retrieve measured Kd.
560 pM

Param item = codrituzumab (v37575) (antibody, human IgG1, kappa, V domains shown, also called GC33; RG-7686) VH: QVQLVQSGAEVKKPGASVKVSCKASGYTFTDYEMHWVRQAPGQGLEWMGALDPKTGDTAYSQKFKGRVTLTADKSTSTAYMELSSLTSEDTAVYYCTRFYSYTYWGQGTLVTVSS VL: DVVMTQSPLSLPVTPGEPASISCRSSQSLVHSNRNTYLHWYLQKPGQSPQLLIYKVSNRFSGVPDRFSGSGSGTDFTLKISRVEAEDVGVYYCSQNTHVPPTFGQGTKLEIKR ; retrieve measured Kd.
310 pM

Param item = H18L6_LC_N33V mAb, v40215 (antibody, human IgG1, kappa, V domains shown, M3-H18L6 chains with the stated light chain point mutation, IgG1/kappa) VH: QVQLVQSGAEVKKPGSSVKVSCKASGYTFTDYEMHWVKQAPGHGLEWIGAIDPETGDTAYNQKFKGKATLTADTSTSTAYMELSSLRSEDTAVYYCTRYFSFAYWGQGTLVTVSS VL: EIVLTQSPATLSLSPGERATISCRSSQSLRHSVGNTYLQWYQQKPGQAPRLLIYKVSNRFSGVPARFSGSGSGTDFTLTISSLEPEDFAVYFCYQSKHVPYTFGGGTKVEIKR ; retrieve measured Kd.
1010 pM
